FYI, the data here is from patent US20240400584A1.

system: HTT; test: Gene panel canonical junction qPCR assay, HTT CJ mRNA (Table 7); assay type: cell-based, human; details: Homo sapiens, read-out: HTT CJ mRNA decrease IC50
Metric name: IC50

compound=COc1cc(-c2ccc3c(c2)COc2nc(N4CC[C@H](NC(C)(C)C)C4)ncc2-3)cnn1 measured_on=HTT experimental_value="100 to 1000 nM"
compound=COc1cc(-c2ccc3c(c2)COc2nc(N4CCC(NC(C)C)CC4)ccc2-3)cnn1 measured_on=HTT experimental_value="1000 to 10000 nM"
compound=CN(c1ccc2c(n1)OCc1cc(-c3cn[nH]c3)ccc1-2)C1CC(C)(C)NC(C)(C)C1 measured_on=HTT experimental_value="100 to 1000 nM"
compound=COc1cc(-c2ccc3c(c2)COc2nc(N4CCNCC4)ccc2-3)cnn1 measured_on=HTT experimental_value="100 to 1000 nM"
compound=CN(c1ncc2c(n1)OCc1cc(-c3cn[nH]c3)ccc1-2)[C@@H]1C[C@H]2CC[C@@H](C1)N2 measured_on=HTT experimental_value="< 100 nM"
compound=c1cnn(-c2ccc3c(c2)COc2nc(N4CCNCC4)ccc2-3)c1 measured_on=HTT experimental_value="> 10000 nM"
compound=COc1cc(-c2ccc3c(c2)COc2nc(N4CC[C@@H](NC(C)(C)C)C4)ccc2-3)cnn1 measured_on=HTT experimental_value="< 100 nM"
compound=COc1cc(-c2ccc3c(c2F)COc2nc(N(C)[C@@H]4C[C@H]5CC[C@@H](C4)N5)ccc2-3)cnn1 measured_on=HTT experimental_value="< 100 nM"
compound=CC1(C)CC(Nc2ccc3c(n2)CCOc2cc(-n4cccn4)ccc2-3)CC(C)(C)N1 measured_on=HTT experimental_value="> 10000 nM"
compound="COc1cc(-c2ccc3c(c2)COc2cc(N4CCC(NC(C)(C)C)C4)ncc2-3)cnn1 (stereo not drawn)" measured_on=HTT experimental_value="100 to 1000 nM"
compound=COc1cc(-c2ccc3c(c2)COc2nc(O[C@@H]4C[C@H]5CC[C@@H](C4)N5)ccc2-3)cnn1 measured_on=HTT experimental_value="< 100 nM"
compound=COc1cc(-c2ccc3c(c2)COc2nc(N(C)[C@@H]4C[C@H]5COC[C@@H](C4)N5)ccc2-3)cnn1 measured_on=HTT experimental_value="< 100 nM"
compound=Cc1[nH]ncc1-c1ccc2c(c1)COc1nc(N(C)[C@@H]3C[C@H]4CC[C@@H](C3)N4)ccc1-2 measured_on=HTT experimental_value="100 to 1000 nM"
compound=COc1cc(-c2ccc3c(c2)COc2nc(N4CCC(N)CC4)ccc2-3)cnn1 measured_on=HTT experimental_value="1000 to 10000 nM"
compound=COc1cc(-c2ccc3c(c2)COc2nc(N(C)[C@@H]4C[C@H]5CC[C@@H](C4)N5)ccc2-3)cnn1 measured_on=HTT experimental_value="< 100 nM"
